- measurement-description: chemical genetic growth profiling, strain panel (AID 1159580);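 also: tested at 20 µM; growth read once vehicle control cultures reached saturation at 30 °C; 1 = growth at the plate median or of vehicle wells; lower values mean less growth of the strain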
- cond: S. cerevisiae deletion strains, growth OD, locus YPL256C, strain CLN2
The campaign covered roughly 5,500 compounds. About 2,000 (36%) were called active. Another 18% or so got no clear call; they are omitted. Rule as the data show it: active = normalized growth mostly below about 0.91 (no sharp cut-off); inconclusive = no clear call, values can overlap the other calls; inactive = mostly above about 0.92. Some of the results follow.
// classify into active, inactive

CN(C)/C=C1\CSc2ccc(Cl)cc2C1=O: active

Ask: # fetch the recorded call for NC[C@H]1O[C@H](OC2[C@@H](N)C[C@@H](N)[C@H](O[C@H]3O[C@H](CO)[C@@H](O)[C@H](N)[C@H]3O)[C@H]2O)[C@H](O)[C@@H](O)[C@@H]1O (stereo not given in full) here
Result: inactive

Ask: Just curious, what result did COc1ccc(-c2cc(=O)c3c(O)cc(O)cc3o2)cc1 get here?
Result: active

Ask: So what was the verdict on COc1ccc(-c2cc(=O)c3c(O)cc(OC)cc3o2)cc1 in this test?
Result: inactive

Ask: I'd appreciate the recorded outcome for N/C(=N/OC(=O)c1ccc([N+](=O)[O-])cc1)c1c(Cl)cccc1Cl from this test.
Result: active

---

- measurement-description: chemical genetic growth profiling, strain panel (AID 1159580);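 also: tested at 20 µM; growth read once vehicle control cultures reached saturation at 30 °C; 1 = growth at the plate median or of vehicle wells; lower values mean less growth of the strain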
- cond: S. cerevisiae deletion strains, growth OD, locus YBL105C, strain PKC1, active compounds read low
The whole screen tested about 5,500 compounds, of which about 2,000 (36%) were called active. Inconclusive results (about 18%) are left out. The list shows a part of the results.
metric: normalized growth
Numbers only.

COc1ccc(N=C2SCC(c3ccc(C)cc3)=NN2CCO)cc1: 0.985
CO/N=C1/CC(C)(C)Cc2c(-c3ccn(C(=O)Nc4cccc(Cl)c4)n3)sc(SC)c21: 0.965
CN(C)/C=C1\CSc2ccc(Cl)cc2C1=O: 0.957
N/C(=N/OC(=O)Nc1cccc(C(F)(F)F)c1)c1ccc(OC(F)(F)F)cc1: 1
FC(F)(F)Oc1ccc(OCc2n[nH]c(=S)n2-c2ccc(Cl)cc2)cc1: 0.986

// next item, normalized growth requested
Ask: normalized growth lookup needed for CCCCCCCCCCCCSc1ncn[nH]1 , thanks.
Result: 0.976

---

- measurement-description: chemical genetic growth profiling, strain panel (AID 1159580);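 also: tested at 20 µM; growth read once vehicle control cultures reached saturation at 30 °C; 1 = growth at the plate median or of vehicle wells; lower values mean less growth of the strain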
- cond: S. cerevisiae deletion strains, growth OD, locus YDL074C, strain BRE1, active compounds read low
Among all 5,500 compounds or so, about 2,000 (36%) were called active. Roughly 18% stayed inconclusive and do not appear here. Some of the results follow.
metric: normalized growth
Numbers only.

CC(=O)[C@@]1(O)CCC2C3C=C(Cl)C4=CC(=O)[C@@H]5CC5[C@]4(C)C3CC[C@@]21C (stereo partly specified): 0.991
COC1=CC(C)[C@@H]2C[C@H]3OC(=O)C[C@H]4C(C)=C(OC)C(=O)C([C@@]34C)[C@@]2(C)C1=O (stereo partly specified): 1.03
O=C(Oc1ccccc1C(=O)O)c1ccccc1O: 0.974
COc1cccc2c1CCC1=CC(=O)CC[C@@]12C: 0.944
CNC[C@H](O)c1cccc(O)c1: 1.01

Pending compound:
Ask: Recorded normalized growth of O=C(O)c1cc(O)ccc1O , please.
Result: 0.978

---

Would you mind telling me the reported normalized growth of each entry?
- measurement-description: chemical genetic growth profiling, strain panel (AID 1159580);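 also: tested at 20 µM; growth read once vehicle control cultures reached saturation at 30 °C; 1 = growth at the plate median or of vehicle wells; lower values mean less growth of the strain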
- cond: S. cerevisiae deletion strains, growth OD, locus YHR079C, strain IRE1, active compounds read low
Out of some 5,500 compounds screened, about 2,000 (36%) were called active. Inconclusive results (about 18%) are left out. The list shows a part of the results.
Numbers only.

Field: example entries. Status: answers known.
CSCCC(N)C(=O)NC(CC(C)C)C(=O)NC(Cc1ccccc1)C(=O)O (centres undefined): 1.01
CNC[C@H](O)c1cccc(O)c1: 1.03
COc1ccc(-c2cc(=O)c3c(O)c(OC)c(O[C@H]4O[C@H](CO[C@@H]5O[C@@H](C)[C@H](O)[C@@H](O)[C@H]5O)[C@@H](O)[C@H](O)[C@H]4O)cc3o2)cc1: 1.01

# return normalized growth for each item in the list
1. COC(=O)C(c1ccccc1)C1CCCCN1 (centres undefined)
2. COc1ccc(-c2cc(=O)c3c(O)c(OC)c(OC)c(OC)c3o2)cc1OC
3. CCOC(=O)NC(=S)Nc1ccc(C(C)(C)C)cc1NC(=S)NC(=O)OCC
4. CC(C)c1cccc(O)c(=O)c1
5. C[C@H]1O[C@H](O[C@H]2[C@H](O)[C@@H](O)[C@@H](O[C@H]3[C@H](O)[C@@H](O)C(O)O[C@@H]3CO)O[C@@H]2CO)[C@H](O)[C@@H](O)[C@@H]1N[C@H]1C=C(CO)[C@@H](O)[C@H](O)[C@H]1O (some centres undefined)
6. N#Cc1ccc2[nH]cc(CCN(Cc3ccccc3)Cc3ccccc3)c2c1

Result:
1: 0.975; 2: 0.949; 3: 0.985; 4: 0.146; 5: 0.959; 6: 1.07
